Just for reference, the RNAGym collection of RNA variant scans (doi:10.1073/pnas.2313332121) is where these values come from.

Documented polymerase ribozyme fitness (log ratio) across a set of variants
B1: TPR t1 (parent)
chain: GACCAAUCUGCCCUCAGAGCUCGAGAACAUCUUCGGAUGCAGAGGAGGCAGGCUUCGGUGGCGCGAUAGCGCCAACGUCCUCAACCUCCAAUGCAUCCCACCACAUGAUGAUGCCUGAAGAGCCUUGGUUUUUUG

- Variants of: B1
- assay-details: polymerase ribozyme fitness, log enrichment relative to wild type (log ratio); higher = more active; in vitro selection for triplet polymerase activity

- var: "C56G A66G C94A"
  polymerase ribozyme fitness (log ratio): -2.49
- var: "G63A U125A"
  polymerase ribozyme fitness (log ratio): -1.21
- var: "G42U C124U"
  polymerase ribozyme fitness (log ratio): -0.586
- var: "C40U U87A"
  polymerase ribozyme fitness (log ratio): -0.311
- var: "A27U C70A C115G U130G"
  polymerase ribozyme fitness (log ratio): -6.2
- var: "C22U A50G C104U"
  polymerase ribozyme fitness (log ratio): -3.86
- var: "C49G G69A A100C C101U"
  polymerase ribozyme fitness (log ratio): -5.56
- var: "A2C G117C U131C U133C"
  polymerase ribozyme fitness (log ratio): -4.66
- var: "A29U G69U U81C A100U C124A"
  polymerase ribozyme fitness (log ratio): 0.115
- var: "G69A U129G"
  polymerase ribozyme fitness (log ratio): -3.2
- var: "G71C C72A"
  polymerase ribozyme fitness (log ratio): -6.22
- var: "C15G A84U G120U U129G"
  polymerase ribozyme fitness (log ratio): -5.84
- var: "C34G G120A"
  polymerase ribozyme fitness (log ratio): -5.16
- var: "C22A C73A"
  polymerase ribozyme fitness (log ratio): -4.25
- var: "A68G U132A"
  polymerase ribozyme fitness (log ratio): -3.13
- var: "A5G C8U C34A C62U G117A"
  polymerase ribozyme fitness (log ratio): -5.35
- var: "C56G U96A"
  polymerase ribozyme fitness (log ratio): -0.238
- var: "C8G C12G C56U U106G U112G A118C U133G"
  polymerase ribozyme fitness (log ratio): -1.11
- var: "U9G G10U U14A C97U"
  polymerase ribozyme fitness (log ratio): -0.883
- var: "C28U A37C G71U"
  polymerase ribozyme fitness (log ratio): -3.01
- var: "U33A G127C"
  polymerase ribozyme fitness (log ratio): -4.76
- var: "G47C C72G"
  polymerase ribozyme fitness (log ratio): -2.9
- var: "C22G G45U C56G A111U"
  polymerase ribozyme fitness (log ratio): -3.8
- var: "C40U U92G C98U G113U G117U"
  polymerase ribozyme fitness (log ratio): -6.95
- var: "C49A C79G A103G U112G C114U U116C"
  polymerase ribozyme fitness (log ratio): -7.2
- var: "G58C C101G U112C U129G"
  polymerase ribozyme fitness (log ratio): -1.34
- var: "G17A G61U"
  polymerase ribozyme fitness (log ratio): -2.6
- var: "C12A G69U G107C G117C"
  polymerase ribozyme fitness (log ratio): -6.81
- var: "A6U A41G"
  polymerase ribozyme fitness (log ratio): 0.32
- var: "G63U G77U"
  polymerase ribozyme fitness (log ratio): -3.54
- var: "U92G A108U U112A G113A"
  polymerase ribozyme fitness (log ratio): -6.92
- var: "C11U C104A"
  polymerase ribozyme fitness (log ratio): -2.66
- var: "C3U C11A C15A A121U"
  polymerase ribozyme fitness (log ratio): 0.659
- var: "C56U C89A"
  polymerase ribozyme fitness (log ratio): -1.04
- var: "C15U A41U"
  polymerase ribozyme fitness (log ratio): -2.32
- var: "C11U C28U G120A C124G"
  polymerase ribozyme fitness (log ratio): 0.0586
- var: "C8U G52U C56A G77U A121U"
  polymerase ribozyme fitness (log ratio): 1.55
- var: "A50U G61C C88U G113C"
  polymerase ribozyme fitness (log ratio): -5.11
- var: "C13U A18C U55G G93U"
  polymerase ribozyme fitness (log ratio): -2.65
- var: "A37G C56U"
  polymerase ribozyme fitness (log ratio): -0.0501
- var: "A46C G47A A50G C97A A121G C124G"
  polymerase ribozyme fitness (log ratio): -5.64
- var: "C123G G135U"
  polymerase ribozyme fitness (log ratio): 1.4
- var: "A50U G69U U81C C114A"
  polymerase ribozyme fitness (log ratio): -2.1
- var: "G36A A46U G47C C56U U106A"
  polymerase ribozyme fitness (log ratio): -3.75
- var: "C8G C49A U96G"
  polymerase ribozyme fitness (log ratio): 0.183
- var: "A74C C76A A121C"
  polymerase ribozyme fitness (log ratio): -1.23
